The measured values listed here are drawn from the supplement of paper PMC5662767.

Tested on: Drosophila S2 cl14 SmoIP sensor cells
assay-notes: normalized SmoIP GFP fluorescence (untreated unstimulated = 0%, untreated Hh-stimulated = 100%); higher = more Smo activation sensor fluorescence
conditions: stimulation: Hh conditioned medium (+Hh); compound concentration: 2 uM; 24 h
Where a name gives a salt, the structure may show the parent alone.
property-label: normalized SmoIP GFP fluorescence (%)
Numeric answer only, unit % assumed.

{"columns": ["molecule", "normalized SmoIP GFP fluorescence, %"],
 "data": [
  ["O=C(/C=C\\n1cnc(-c2cc(C(F)(F)F)cc(C(F)(F)F)c2)n1)NNc1cnccn1", 109],
  ["CC[C@H](Nc1ncnc2[nH]cnc12)c1nc2cccc(F)c2c(=O)n1-c1ccccc1", 126],
  ["Cc1ccc(C(=O)c2cc(O)c(O)c([N+](=O)[O-])c2)cc1", 108],
  ["COc1cc([C@@H]2c3cc4c(cc3[C@@H](O[C@@H]3O[C@@H]5CO[C@@H](C)O[C@H]5[C@H](O)[C@H]3O)[C@H]3COC(=O)[C@H]23)OCO4)cc(OC)c1OP(=O)(O)O", 178],
  ["CCCCCCCCOc1ccccc1C(=O)Nc1ccc(C(=O)OCC[N+](C)(CC)CC)cc1 [otilonium-bromide]", 109]
]}

get_value(item= CCc1cncnc1N1CCN(Cc2nc3ccc(C(F)(F)F)cc3[nH]2)CC1 , readout=normalized SmoIP GFP fluorescence) returns 121

Per the record, CCCCN(Cc1ccc(C(=O)NO)cc1)C(=O)Nc1ccccc1 has normalized SmoIP GFP fluorescence of 105

What the record says about Cc1ccc(N(CC2=NCCN2)c2cccc(O)c2)cc1 [phentolamine-mesilate] : normalized SmoIP GFP fluorescence is 128

Lab note: measured normalized SmoIP GFP fluorescence of CNC(=O)c1ccccc1Nc1nc(Nc2ccc(N3CCOCC3)cc2OC)ncc1Cl was 163

Notebook: O=c1n(CCCN2CCN(c3cccc(Cl)c3)CC2)nc2ccccn12 [trazodone-hydrochloride-desyrel] , normalized SmoIP GFP fluorescence read as 172

* * *

System: Drosophila S2 cl14 SmoIP sensor cells;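 note: flow cytometry read-out as median GFP intensity of gated cells, compounds added 30 min before Hh-conditioned or mock medium, mock-treated cells serving as unstimulated baseline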
assay-notes: normalized SmoIP GFP fluorescence (untreated unstimulated = 0%, untreated Hh-stimulated = 100%); higher = more Smo activation sensor fluorescence
conditions: stimulation: mock conditioned medium (-Hh); compound concentration: 2 uM; 24 h
property-label: normalized SmoIP GFP fluorescence (%)
Answer with a number only, understood to be in %.

Previously resolved entries follow.
{"columns": ["compound", "target-under-test", "unit-of-measure", "val"],
 "data": [
  ["Nc1ccc(C(=O)Nc2cccc(-c3nc(N4CCOCC4)c4oc5ncccc5c4n3)c2)cn1", "Drosophila S2 cl14 SmoIP sensor cells", "%", 5.45],
  ["O=C(O)c1ccc(Nc2ncc3c(n2)-c2ccc(Cl)cc2C(c2c(F)cccc2F)=NC3)cc1", "Drosophila S2 cl14 SmoIP sensor cells", "%", 46.7]
]}

Kindly note the recorded normalized SmoIP GFP fluorescence for C=CC(=O)Nc1cccc(Nc2nc(Nc3ccc(Oc4ccnc(C(=O)NC)c4)cc3)ncc2F)c1 , which is -1.23

In plain terms, FC(F)(F)c1ccc(/C=C/c2nc(COc3ccc(CCCCn4ccnn4)cc3)co2)cc1 has a documented normalized SmoIP GFP fluorescence of -0.747

Per the record, COCCOC(=O)C1=C(C)NC(C)=C(C(=O)OC/C=C/c2ccccc2)C1c1cccc([N+](=O)[O-])c1 (centres undefined) has normalized SmoIP GFP fluorescence of 2.97

In plain terms, COc1cc(Nc2ncc3c(n2)-c2ccc(Cl)cc2C(c2c(F)cccc2OC)=NC3)ccc1C(=O)O has a documented normalized SmoIP GFP fluorescence of 83

For reference, reported normalized SmoIP GFP fluorescence for COc1ccc2c(c1)C(=O)N(CCc1ccc(S(=O)(=O)NC(=O)NC3CCCCC3)cc1)C(=O)C2(C)C stands at -4.01

The value of normalized SmoIP GFP fluorescence measured for the compound C[N+]1(C)CCC(=C(c2ccccc2)c2ccccc2)CC1 [diphemanil-methylsulfate] turned out to be -3.62

normalized SmoIP GFP fluorescence for O=c1cc(-c2cccc3c2Sc2ccccc2S3)oc(N2CCOCC2)c1 is 2.43

// normalized SmoIP GFP fluorescence lookup, compound = CCC(=O)NCC[C@@H]1CCc2ccc3c(c21)CCO3 , result: -0.588
